# Test system: K562
# procedure-summary: NCI tumour cell line growth inhibition, 48 h
Calls of active or inactive are those of the source. Rule as the data show it: active = GI50 up to about 1.1 µM and inactive = higher.
measurement-label: GI50

Worked cases, answers included:
{"columns": ["molecule", "GI50"],
 "data": [
  ["CCOP(=O)(CC(=O)C1CC1)OCC", "> 100 µM (inactive)"],
  ["N/N=C1\\c2ccccc2C2/C(=N\\N)c3ccccc3C12 (centres undefined)", "> 100 µM (inactive)"]
]}

Attention now turns to another entry.
INPUT: Dear colleague, I am looking for the recorded GI50 of the following molecule: CC(=O)OC1COC(n2c(-c3ccc(Cl)cc3)cc(-c3ccccc3)c(C#N)c2=S)C(OC(C)=O)C1OC(C)=O (centres undefined)
OUTPUT: 12.2 µM (inactive)

====

# Tested on: RXF 393
# procedure-summary: NCI tumour cell line growth inhibition, 48 h
Activity calls are given as the source filed them. Rule as the data show it: active = GI50 up to about 1.1 µM and inactive = higher.
Your response should consist of one outcome taken from yes (1) (active), no (0) (inactive)

INPUT: Lab log entry: c1ccc2c(c1)N=C(NC1CCCCC1)CCN2 — outcome as called in the assay?
OUTPUT: no (0)

INPUT: What did this assay record as the result for O=S(=O)(O)c1cc(O)c2c(/N=C\c3ccccc3O)cc(S(=O)(=O)O)cc2c1 ?
OUTPUT: no (0)

INPUT: State the result this test recorded for O=c1oc2ccc3ccccc3c2cc1-c1nc2ccc([N+](=O)[O-])cc2o1 .
OUTPUT: no (0)

INPUT: Please state the recorded outcome for this molecule: CC(NC(=O)C(N)CC(=O)O)C(=O)OC12CC3CC(CC(C3)C1)C2 (stereo not drawn)
OUTPUT: no (0)

INPUT: Record request — test call for C[C@]12CC[C@H]3[C@@H](CC=C4C[C@@H](N5CCCC5)CC[C@@]43C)[C@@H]1C[C@H](N1CCOCC1)[C@@H]2O
OUTPUT: no (0)

INPUT: Recorded test call requested for NC(Cc1c2ccccc2cc2ccccc12)C(=O)O (stereo not drawn)
OUTPUT: no (0)

INPUT: For COc1ccc(C[C@H]2NC[C@H](OC(C)=O)[C@H]2OC(C)=O)cc1 , what call appears in the results of this test?
OUTPUT: yes (1)

INPUT: Test call for this molecule, please: C/C(=N\Nc1ccccc1)c1sc(-c2nc(C)c(/C(C)=N/Nc3ccccc3)s2)nc1C
OUTPUT: no (0)

INPUT: Which outcome was assigned to COc1cc(CNc2c3ccccc3nc3ccccc23)cc(OC)c1OC in this test?
OUTPUT: no (0)

INPUT: What call does the record list for COc1cc(Br)c(/C=N\c2cccc3ccc(OS(=O)(=O)c4ccc([N+](=O)[O-])cc4)cc23)cc1OC ?
OUTPUT: no (0)

INPUT: Please state the recorded outcome for this molecule: CCOc1ccc(-c2nc(-c3oc4ccccc4c(=O)c3OC(C)=O)cs2)cc1
OUTPUT: no (0)

INPUT: Could you please tell me the result logged for C[C@@H]1C[C@]2(C[C@@H](C)C3[C@@H](CC4(C)[C@@H]5CCC6C(C)(C)OC(=O)C=C[C@]67C[C@@]5(CC[C@]34C)OO7)O2)OC1=O (stereo partly drawn) in this assay?
OUTPUT: no (0)

INPUT: Fill in: this test's call for COC(=O)c1c2c(cc3c1CC1(C3)Cc3cc4c(c(C(=O)OC)c3C1)CCCC4)CCCC2 is ___
OUTPUT: no (0)

INPUT: Identify the outcome logged in this assay for the molecule shown: COC(=O)c1ccccc1Nc1ccccc1C(=O)OC
OUTPUT: no (0)

INPUT: Which outcome was entered for the molecule O=C1N(c2ccccc2)N=C2c3ccncc3C3=NN(c4ccccc4)C(=O)C123 (stereo not drawn) in this test?
OUTPUT: no (0)

INPUT: Just curious, what result did N#Cc1nnc2c3c(-c4ccc(Cl)cc4)c(C#N)c(O)nc3nn2c1N get here?
OUTPUT: no (0)

INPUT: Fill in: this test's call for CCCCCCCCCCCCCCCCNCC(O)CN (stereo not drawn) is ___
OUTPUT: no (0)

INPUT: Given Cc1ccc(SCC(CF)OCn2cc(F)c(=O)[nH]c2=O)cc1 (stereo not drawn) , state the outcome it received in this test.
OUTPUT: no (0)

====

# Tested on: HL-60
# procedure-summary: NCI tumour cell line growth inhibition, 48 h
Calls of active or inactive are those of the source. Rule as the data show it: active = GI50 up to about 1.1 µM and inactive = higher. Residues, ends and D or L forms follow the SMILES beside them. *: point of attachment. Ethyl(2-NMe3+) = C[N+](C)(C)CC*; Boc = CC(C)(C)OC(=O)*
Write down the outcome that applies. Available outcomes: 1 (yes) = active, 0 (no) = inactive

Solved cases (2 shown):
{"columns": ["compound", "target-desc", "cat"],
 "data": [
  ["O=C1COc2cc(N3CCN(c4cccc(C(F)(F)F)c4)CC3)ccc2N1", "HL-60", "0 (no)"],
  ["C=CCOCn1cc(C)c(=O)[nH]c1=O", "HL-60", "0 (no)"]
]}

// switching to the query compound
INPUT: Per the assay record, what outcome was assigned to CC(NC(=O)C(Cc1ccc(OCC[N+](C)(C)C)cc1)NC(=O)OC(C)(C)C)C(=O)NC(Cc1ccccc1)C(=O)NCC(N)=O (stereo unspecified) (Boc-Y(Ethyl(2-NMe3+))AFG-NH2; configuration not given here) ?
OUTPUT: 0 (no)

====

Each item that follows carries a reported GI50.
# System: 786-0
# procedure-summary: NCI tumour cell line growth inhibition, 48 h
Active and inactive are the calls of the source. Rule as the data show it: active = GI50 up to about 1.1 µM and inactive = higher.

{"columns": ["compound", "GI50"],
 "data": [
  ["NC(Cc1c2ccccc2cc2ccccc12)C(=O)O (centres undefined)", "> 100 µM (inactive)"]
]}

INPUT: Field request: GI50 | item: CCOc1cc2c(cc1O)C(=O)C[C@@H]1[C@@H]2CC[C@]2(C)[C@@H](O)CC[C@@H]12
OUTPUT: 0.177 µM (active)

INPUT: GI50 for O=C1C(O)=C(CC=C(Cl)Cl)C(=O)c2ccccc21 ?
OUTPUT: 6.17 µM (inactive)

INPUT: GI50 lookup needed for CC(=O)O/N=C/c1ncccc1CO , thanks.
OUTPUT: > 100 µM (inactive)

INPUT: Query (compound): CCC(C)CNC1=C(NC(C)=O)C(=O)c2ccccc2C1=O (centres undefined) ; field requested: GI50
OUTPUT: > 100 µM (inactive)

INPUT: I'd like to know its GI50. The compound in question is N#Cc1ccccc1/C=N/O
OUTPUT: > 76.7 µM (inactive)

INPUT: What does the record list as GI50 for Cc1cn(C(C)OCCN2C(=O)c3ccccc3C2=O)c(=O)[nH]c1=O (centres undefined) ?
OUTPUT: > 100 µM (inactive)

INPUT: Value lookup for GI50; key = CC(Cl)(CCC(Cl)C(C)(C)Cl)C(=O)CBr (centres undefined)
OUTPUT: 7.94 µM (inactive)

INPUT: Looking for the measured GI50 of O=C(CC1C=Cc2ccccc2N1C(=O)c1ccccc1)c1ccccc1 (centres undefined) , can you help?
OUTPUT: 29.3 µM (inactive)

INPUT: Which GI50 value is on record for CC(C)c1c2[nH]c3ccccc3c2c(C(C)C)c2[nH]c3ccccc3c12 ?
OUTPUT: > 52.5 µM (inactive)

====

# Test system: OVCAR-8
# procedure-summary: NCI tumour cell line growth inhibition, 48 h
The source made the active and inactive calls. Cut-off read from the data, not from the text of the source: active = GI50 up to about 1.1 µM and inactive = higher.
measurement-label: GI50

{"columns": ["compound", "measurement-label", "recorded-result"],
 "data": [
  ["Cc1cn(C(C)OCCN2C(=O)c3ccccc3C2=O)c(=O)[nH]c1=O (centres undefined)", "GI50", "> 100 µM (inactive)"]
]}

INPUT: Item OC1c2c(ccc3c2CCC3)CC12Cc1ccccc1C2 (centres undefined) has what recorded GI50?
OUTPUT: 17.7 µM (inactive)

INPUT: GI50 lookup needed for CC(C)Oc1c(N(Cc2ccccc2)c2ccccc2C2SCCCS2)c(=O)c1=O , thanks.
OUTPUT: 3.61 µM (inactive)

INPUT: Value lookup for GI50; key = N/N=C1\c2ccccc2C2/C(=N\N)c3ccccc3C12 (centres undefined)
OUTPUT: > 100 µM (inactive)

INPUT: So what does the record say about GI50 for CC(Cl)(CCC(Cl)C(C)(C)Cl)C(=O)CBr (centres undefined) ?
OUTPUT: 10.5 µM (inactive)

INPUT: Any idea what GI50 was measured for C#CC(O)/C=C/C(O)CCCC(O)CC#CC(O)C#CCCCCC(O)/C=C/CCCCCC(=O)CCCCCCCCCCCCCC(O)C(O)C#CC(=O)O (centres undefined) ?
OUTPUT: > 25 µM (inactive)

INPUT: I would be grateful if you could share the reported GI50 for CCOC(=O)c1ccc(Nc2nc3cc(C(F)(F)F)ccc3nc2-c2ccccc2)cc1 .
OUTPUT: 31.3 µM (inactive)

INPUT: So what's the measured GI50 for this one? O=C(NC(=S)Nc1ccc([N+](=O)[O-])cc1)c1ccc2c(c1)Sc1ccccc1O2
OUTPUT: > 100 µM (inactive)

INPUT: Quick one: GI50 for Cc1oc2ccccc2c(=O)c1Cn1nnc2ccccc21 ?
OUTPUT: 43.3 µM (inactive)
